test system: KM12 colon; experiment: NCI tumour cell line growth inhibition, 48 h
TGI listing for selected compounds.

compound	TGI
CC(=O)c1c(C)[nH]c(-c2nc3ccc(N4CCN(C)CC4)cc3[nH]2)c1-c1ccc(N(C)C)cc1	20.2 µM
Cc1ccc(NC(=O)CC2Sc3ccccc3NC2=O)c(C)c1 (stereo not given)	20.1 µM
N#Cc1c(N2CCC(O)C2)c2ccccc2n2c1nc1ccccc12 (stereo not given)	> 100 µM
COC(=O)C1(C#N)C(C)(C)N=C(c2ccccc2)C12CCCCC2 (stereo not given)	> 100 µM
C=CC(=O)Nc1cc(C)ccc1Nc1nc(Nc2cc(OC)ncc2C)ncc1C(F)(F)F	> 58.1 µM
O=C1C(=O)N(c2cccc(C(F)(F)F)c2)C(=S)N1c1ccccc1	> 100 µM
COC(=O)C(Cc1c[nH]c2ccccc12)NC(=O)c1ccc(-c2ccc(Cl)cc2Cl)o1 (stereo not given)	> 100 µM
O=C(COc1cc(O)c2c(=O)cc(-c3ccccc3)oc2c1)Nc1ccccc1C(F)(F)F	> 100 µM
CC(=O)OCC1OC(Nn2c(=O)[nH]c3ccccc3c2=O)C(OC(C)=O)C(OC(C)=O)C1OC(C)=O (stereo not given)	> 100 µM
CCOC(=O)C1c2[nH]c3ccccc3c2CCN1C(=O)c1ccc(OC)o1 (stereo not given)	> 10 µM
COC1CC(COCc2ccccc2)CC(OC)O1 (stereo not given)	> 100 µM
O=[N+]([O-])C(=C(N1CCOCC1)N1CCOCC1)/C(Cl)=C(\Cl)Br	76.3 µM
C/C(CC(O)(/C=N/O)c1ccccc1)=N/O (stereo not given)	> 100 µM
CC12CCC3(OCCO3)C(OC(=O)c3ccccc3)=C1CCC21OCCO1 (stereo not given)	> 100 µM
CC(C)(C)c1cc(-n2c(-c3ccc(Cl)cc3)nc3cc(C(=O)Nc4ccc(Cl)cc4)ccc32)n[nH]1	> 100 µM
O=C(c1ccccc1)c1ccc2[nH]c(-c3c(Cl)c(Cl)c(Cl)c(Cl)c3C(=O)N/N=C/c3cccc(Oc4ccccc4)c3)nc2c1	> 100 µM
CN(/N=C/c1cccc2cccnc12)c1ccc(Cl)cc1[N+](=O)[O-]	> 100 µM
COc1ccc2ccccc2c1C1NC(=O)c2ccccc2N1 (stereo not given)	19.9 µM
CC(C)C(=O)Nc1cc(C(F)(F)F)ccc1[N+](=O)[O-]	> 100 µM
CC(=O)O[C@H]1CC[C@@]2(C)C(=CC[C@@H]3[C@@H]2CC[C@]2(C)c4c(C)nn(-c5ccccc5)c4C[C@@H]32)C1	86.7 µM
O=c1ccn(COC(COCc2ccccc2)COCc2ccccc2)c(=O)[nH]1	> 100 µM
O=c1ncc(F)cn1C1OC(CO)C(O)C1O (stereo not given)	> 51.2 µM
CCOc1ccc(N/C(=C(/C(Cl)=C(/Cl)N2CCCCC2)[N+](=O)[O-])n2nnc3ccccc32)cc1	31.6 µM
NCCOCCOCCNc1nc(-c2ccccc2)nc(N2CCN(c3ccccn3)CC2)n1	31 µM
COCc1cc(C(=O)Nc2cc([C@H]3CC[C@@H](OC(=O)NC(C)C)C3)[nH]n2)n(C)n1	23.1 µM
O=C(Nc1ccc2[nH]c(C(=O)N3CC(CCl)c4c3cc([N+](=O)[O-])c3ccccc43)cc2c1)Nc1ccc2[nH]c(C(=O)N3CC(CCl)c4c3cc([N+](=O)[O-])c3ccccc43)cc2c1 (stereo not given)	> 100 µM
COc1cc(C(=O)N2CCN(c3ncnc4ccccc34)CC2)c(N)cc1OCc1ccccc1	38.4 µM
O=C1C=CC(=Nc2cc(Br)c(O)c(Br)c2)C=C1	42.5 µM
NCCCCCCCn1c2c(c3ccccc3c1=O)C(=O)c1ccccc1-2	3.82 µM
COc1ccc2c(=O)cc(C(Cl)(Cl)Cl)oc2c1	12.5 µM
COc1cccc(NC(=O)c2sc3nc(C)c(C(O)c4ccccc4)cc3c2N)c1 (stereo not given)	11.8 µM
O=c1cc(-c2cccc3c2Sc2ccccc2S3)oc(N2CCOCC2)c1	21.4 µM
Cc1cccc2c1c(=O)c1c(O)c3c(cc1n2C)OC(C)(C)C=C3	> 10 µM
NC(=O)Cc1nc2c(N)ncnc2n1C1OC(CO)C(O)C1O (stereo not given)	> 100 µM
O=c1c(Br)cc2nc3ccccc3sc-2c1Br	> 100 µM
COc1ccc(/C=C2\CCS(=O)(=O)c3ccccc3C2=O)cc1	31 µM
COc1cc(-c2cc(O)c(-c3ccc4ccccc4n3)c(=O)[nH]2)cc(OC)c1OC	> 100 µM
CC1=C(c2ccccc2)NC(=S)C(C)C(c2ccccc2)=N1 (stereo not given)	> 100 µM
Nc1nc2ncc(CNc3ccc(C(=O)NC(CCC(=O)O)C(=O)O)cc3)nc2c(=O)[nH]1 (stereo not given)	> 100 µM
COc1ccc(CCCNC(=O)c2cc(OC)c(OC)cc2CCO)cc1OC	> 100 µM

---

test system: CAKI-1 renal; assay: NCI tumour cell line growth inhibition, 48 h; in the data active = GI50 below about 0.43 µM; inactive = the rest
Classes used: class 1 = active, class 0 = inactive

molecule	study-target	group
CCN(CC)c1ccc(C(O)C2=CC(=O)c3ccccc3C2=O)cc1 (centres undefined)	CAKI-1 renal	class 0
COc1cc(C2SCC(=O)N2c2ncc(C)s2)cc(OC)c1OC (centres undefined)	CAKI-1 renal	class 0
[N-]=[N+]=NCCCCCC(=O)OC(C(=O)c1ccccc1)c1cccc(OCC(=O)NCCOCCOCCNC(=O)CCCC[C@@H]2SC[C@@H]3NC(=O)N[C@@H]32)c1 (some centres undefined)	CAKI-1 renal	class 0
O=C(c1ccccc1)C1OC1c1ccc([N+](=O)[O-])cc1 (centres undefined)	CAKI-1 renal	class 0
Cc1nc2ccccc2c(/C=C/c2ccc(Cl)cc2)c1C(=O)/C=C/c1ccc(C(F)(F)F)cc1	CAKI-1 renal	class 1
COc1cc(NCCCN=C(N)NC(N)=NC(C)C)c2ncccc2c1	CAKI-1 renal	class 0
O=C(Nc1ccc(-n2ccc3c(NC(=O)c4ccccc4)ncnc32)cc1)Nc1ccc(Cl)c(Cl)c1	CAKI-1 renal	class 0
C#Cc1c(/C=C/C(=O)OCC)ccc2ccccc12	CAKI-1 renal	class 0
S=C(Nc1ccc(-c2nc3ccccc3[nH]2)cc1)Nc1ccc(-c2nc3ccccc3[nH]2)cc1	CAKI-1 renal	class 0
O=C(NCCCO)c1cc(Cl)ccc1O	CAKI-1 renal	class 0
C=CC(=O)Nc1cc(C)ccc1Nc1nc(Nc2cc(OC)ncc2C)ncc1C(F)(F)F	CAKI-1 renal	class 0
O=C(Nc1ccncc1)C(=O)c1cn(S(=O)(=O)c2ccc(Cl)cc2)c2ccccc12	CAKI-1 renal	class 0
Nc1c(C(=O)Nc2cccc(F)c2)sc2nc3c(cc12)C(=O)CCC3	CAKI-1 renal	class 1
Cc1nnc(-c2cccc(-c3ccc(C(=O)NCC4CC4)cc3)c2)o1	CAKI-1 renal	class 0

---

We begin with a simple list: items and their reported TGI.
system: MCF7 breast; experiment: NCI tumour cell line growth inhibition, 48 h
value-type: TGI

compound	value-type	result
O=c1[nH]nc(-c2ccccc2)n1/N=C/c1cccs1	TGI	> 100 µM
Nc1nc2c(ncn2C2C=CC(CO)C2)c(=O)[nH]1 (stereo not drawn)	TGI	> 100 µM
O=c1[nH]c(=S)[nH]c2c1CN(CCCN1CCOCC1)CN2	TGI	> 100 µM
CC[C@@]1(C)CCC2c3ccc(O)cc3CC[C@H]2C1C (stereo partly drawn)	TGI	30.3 µM
S=C(Nc1ccc(-c2nc3ccccc3[nH]2)cc1)Nc1ccc(-c2nc3ccccc3[nH]2)cc1	TGI	> 100 µM
N#Cc1c(N2CCC(O)C2)c2ccccc2n2c1nc1ccccc12 (stereo not drawn)	TGI	> 100 µM
COC(=O)c1ccc(N=NN(C)COc2ccc(Br)cc2)cc1	TGI	> 100 µM
COc1ccc2ccccc2c1C1NC(=O)c2ccccc2N1 (stereo not drawn)	TGI	29.4 µM
C/C(CC(O)(/C=N/O)c1ccccc1)=N/O (stereo not drawn)	TGI	> 100 µM
Nc1nc2ncc(CNc3ccc(C(=O)NC(CCC(=O)O)C(=O)O)cc3)nc2c(=O)[nH]1 (stereo not drawn)	TGI	> 100 µM
CN(/N=C/c1cccc2cccnc12)c1ccc(Cl)cc1[N+](=O)[O-]	TGI	> 100 µM
C#CCSc1cc(Cl)c(C)cc1S(=O)(=O)Nc1nc2ccccc2o1	TGI	> 100 µM
COc1ccc(N2C(=O)C3c4[nH]c5ccc(Br)cc5c4C4CCC(C(C)(C)C)CC4C3C2=O)cc1 (stereo not drawn)	TGI	> 100 µM

---

Recorded TGI for the following molecules
test system: MALME-3M melanoma; test: NCI tumour cell line growth inhibition, 48 h

molecule	TGI
CN(/N=C/c1cccc2cccnc12)c1ccc(Cl)cc1[N+](=O)[O-]	> 100 µM
C/C(CC(=O)Nc1ccc(C)c(C)c1)=N\NC(N)=O	> 100 µM
COc1ccc2c(=O)cc(C(Cl)(Cl)Cl)oc2c1	35.6 µM
C[C@@]12CCC[C@@](C)(C(=O)O)C1CC[C@]13C[C@@](O)(CO)[C@](O)(CCC12)C3 (stereo partly specified)	> 100 µM
COC1CN(C)C(=Nc2cccc3ccccc23)S1 (stereo unspecified)	> 10 µM
Cc1c(N2CCN(C)CC2)nc2ccc(Cl)cc2c1-c1ccccc1	35.7 µM
